assayExplanation: blockers of cytochrome c efflux from mitochondria – biochemical, purified mitochondria (AID 1603);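 note: mouse liver mitochondria challenged with calcium chloride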
conditionDetails: stronger effect = lower value
Define the label as MET when cytochrome c release ratio is strictly less than 1 and as NOT MET in all remaining cases.

# TODO verify cytochrome c release ratio < 1 strictly for this molecule: NC(=O)NC1NC(=O)NC1=O (stereo not drawn)
MET

# TODO verify cytochrome c release ratio < 1 strictly for this molecule: "CCCCOc1ccc(CC(=O)NO)cc1"
NOT MET

# TODO verify cytochrome c release ratio < 1 strictly for this molecule: "NC(=O)c1ncn([C@@H]2O[C@H](CO)[C@@H](O)[C@H]2O)c1O"
MET

# TODO verify cytochrome c release ratio < 1 strictly for this molecule: "O=C(O)CCCCCCCC(=O)O"
NOT MET

# TODO verify cytochrome c release ratio < 1 strictly for this molecule: "OCc1ccccc1O"
MET

# TODO verify cytochrome c release ratio < 1 strictly for this molecule: "Oc1c(Cl)cc(Cl)cc1Sc1cc(Cl)cc(Cl)c1O"
MET

# TODO verify cytochrome c release ratio < 1 strictly for this molecule: "Cc1cc(N)c2ccccc2[n+]1CCCCCCCCCC[n+]1c(C)cc(N)c2ccccc21"
NOT MET

# TODO verify cytochrome c release ratio < 1 strictly for this molecule: "Cc1cc(C(C)(C)C)cc(C)c1CC1=NCCN1"
NOT MET

# TODO verify cytochrome c release ratio < 1 strictly for this molecule: "C[N+](C)(C)CCCCCC[N+](C)(C)C"
MET

# TODO verify cytochrome c release ratio < 1 strictly for this molecule: "O=C(OCc1ccccc1)c1ccccc1"
NOT MET

# TODO verify cytochrome c release ratio < 1 strictly for this molecule: "CN(C)CCCN1c2ccccc2Sc2ccc(C(F)(F)F)cc21"
MET

* * *

Tested on: F380Y/beta4
assayExplanation: BK channel mutant inhibitors and activators – cell-based, U2OS BacMam, thallium flux, beta subunits, selectivity assay, profiling panel (AID 1259406);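 note: initial slope of Thallos dye fluorescence rise after thallium is added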
conditionDetails: U2OS BacMam BK variants, at 30 µM
Activity calls are given as the source filed them.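 The calls were made as follows: active = thallium flux through the channel raised or lowered by more than 3 SD from vehicle-only wells, actives on both sides; inactive = the rest.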
Entry note: the call must match one of TRUE (active), FALSE (inactive)

// param item: "CCN1CCC[C@H]1CNC(=O)c1cc(S(N)(=O)=O)ccc1OC" ; yields the recorded call
FALSE

// param item: "C[C@@H]1CN(CCCn2c3ccccc3c3ccccc32)C[C@H](C)N1" ; yields the recorded call
TRUE

// param item: "Cc1[nH]c(=O)c(C#N)cc1-c1ccncc1" ; yields the recorded call
FALSE

// param item: CC(c1cc2ccccc2s1)N(O)C(N)=O (stereo unspecified) ; yields the recorded call
FALSE

// param item: "CCC(=O)O[C@]1(C(=O)SCF)[C@H](C)C[C@H]2[C@@H]3C[C@H](F)C4=CC(=O)C=C[C@]4(C)[C@@]3(F)[C@@H](O)C[C@@]21C" ; yields the recorded call
FALSE

// param item: CC[N+](C)(CC)CCOC(=O)C(O)(c1ccccc1)C1CCCCC1 (stereo unspecified) ; yields the recorded call
FALSE

// param item: COc1cc2c(cc1OC)C(=O)C(CC1CCN(Cc3ccccc3)CC1)C2 (stereo unspecified) ; yields the recorded call
FALSE

// param item: "Cn1c(NCCN(CCO)CCCc2ccc([N+](=O)[O-])cc2)cc(=O)n(C)c1=O" ; yields the recorded call
FALSE

// param item: "Nc1[nH]c(=O)ncc1F" ; yields the recorded call
FALSE

// param item: "NS(=O)(=O)Cc1noc2ccccc12" ; yields the recorded call
FALSE

// param item: "COc1cc(OC)c(C(=O)CCCN2CCCC2)c(OC)c1" ; yields the recorded call
FALSE
